Just for reference, patent US20230056252A1 is where these values come from.

// reported kon for each item listed
measurement-target: T1, biotinylated CD3 epsilon:delta heterodimer protein (Amsbio AMS.CDD-H52WO) (Homo sapiens (Human), UniProt P07766 23-126; P04234 22-105)
T1 construct: also called CD3 heterodimer
test: BLI (Octet), CD3 on SA sensor, Fab analyte;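 further: biolayer interferometry with biotinylated CD3 epsilon:delta captured on streptavidin sensors, Fab analyte at several concentrations up to 300 nM, 100 s association then 300 s dissociation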
metric-name: kon

| binder | test-value |
| --- | --- |
| huSP34.5.6 Fab-HF (Fab, V domains shown, also called HC5+LC6) VH: EVQLVESGGGLVQPGGSLRLSCAASGFTFSTYAMNWVRQAPGKGLEWVGRIRSKYNNYATYYADSVKGRFTISRDNSKNTLYLQMNSLRAEDTAVYYCVRHGNFGHSYVSWFAVWGQGTLVTVSS VL: QAVVTQPPSLTVSPGGTVTLTCGSSTGAVTTGHYANWVQQKPGQAPRGLIGGTSNRAPGVPARFSGSLSGGKAALTISGAQPEDEAEYYCALWYSARWVFGGGTKLTVL | 280000 M⁻¹ s⁻¹ |
| mSP34 Fab-HF (Fab, V domains shown, also called mSP34 chimeric Fab; mSP34 human chimeric Fab) VH: EVKLLESGGGLVQPKGSLKLSCAASGFTFNTYAMNWVRQAPGKGLEWVARIRSKYNNYATYYADSVKDRFTISRDDSQSILYLQMNNLKTEDTAMYYCVRHGNFGNSYVSWFAYWGQGTLVTVSA VL: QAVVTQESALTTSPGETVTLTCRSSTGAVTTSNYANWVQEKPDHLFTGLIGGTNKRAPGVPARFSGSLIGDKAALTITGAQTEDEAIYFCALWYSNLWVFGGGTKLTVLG | 262000 M⁻¹ s⁻¹ |
| huSP34.4.6 Fab-HF (Fab, V domains shown, also called HC4+LC6) VH: EVQLVESGGGLVQPGGSLRLSCAASGFTFSTYAMNWVRQAPGKGLEWVGRIRSKYNNYATYYAASVKGRFTISRDDSKNSLYLQMNSLRTEDTAVYYCVRHGNFGHSYVSWFAVWGQGTLVTVSS VL: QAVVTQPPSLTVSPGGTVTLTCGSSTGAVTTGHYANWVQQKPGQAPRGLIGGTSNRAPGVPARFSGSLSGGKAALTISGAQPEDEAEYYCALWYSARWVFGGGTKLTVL | 451000 M⁻¹ s⁻¹ |
